Origin of values: patent US20250059282A1

Please go through the items and note down their pKd.
# systemTested: T1, Human PD-L2-Fc (human, UniProt Q9BQ51 20-220)
# T1 construct: also called dimeric PD-L2; PD-L2 (dimeric ligand); not shown: human IgG1 Fc constant region
# T1 sequence: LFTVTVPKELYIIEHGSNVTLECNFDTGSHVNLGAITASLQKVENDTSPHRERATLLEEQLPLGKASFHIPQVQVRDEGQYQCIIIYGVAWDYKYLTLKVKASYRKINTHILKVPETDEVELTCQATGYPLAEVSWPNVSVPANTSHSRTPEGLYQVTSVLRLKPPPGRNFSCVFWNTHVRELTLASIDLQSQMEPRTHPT
# experimentDescription: ForteBio, Fab, monovalent
// pKd is dimensionless: -log10 of concentration (M)

Need pKd of BiPDL4-14 Fab (Fab, V domains shown, Fab made by papain digestion of the IgG) VH: QVQLVESGGGVVQPGRSLRLSCAASGFTFDEYGMHWVRQAPGKGLEWVAVIGYDGLNKYYADSVKGRFTISRDNSKNTLYLQMNSLRAEDTAVYYCARAGIEYSYAYTDYWGQGTLVTVSS VL: EIVLTQSPGTLSLSPGERATLSCRASQFVYSSDLAWYQQKPGQAPRLLIYGASTRKTGIPDRFSGSGSGTDFTLTISRLEPEDFAVYYCLQFGWWPPRTFGGGTKVEIK , thanks.
9.40

Quick one: pKd of BiPDL4-34 Fab (Fab, V domains shown, Fab made by papain digestion of the IgG) VH: QVQLVESGGGVIQPGRSLRLSCAASGFTFSAYLMHWVRQAPGKGLEWVAAIGYDGMNKYYADSVKGRFTISRDNSKNTLYLQMNSLRAEDTAVYYCARAGIEYSYAYTDYWGQGTLVTVSS VL: EIVLTQSPGTLSLSPGERATLSCRASQFVYSSDLAWYQQKPGQAPRLLIYGASARAAGIPDRFSGSGSGTDFTLTISRLEPEDFAVYYCMQFGWWPPRTFGGGTKVEIK ?
9.25

Find the recorded pKd belonging to BiPDL4-24 Fab (Fab, V domains shown, Fab made by papain digestion of the IgG) VH: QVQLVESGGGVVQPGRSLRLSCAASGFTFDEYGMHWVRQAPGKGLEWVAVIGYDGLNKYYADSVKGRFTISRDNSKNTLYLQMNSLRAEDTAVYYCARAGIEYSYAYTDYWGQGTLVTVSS VL: EIVLTQSPGTLSLSPGERATLSCRASNSVVSSYLAWYQQKPGQAPRLLIYGAASRANGIPDRFSGSGSGTDFTLTISRLEPEDFAVYYCVQFGWWPPRTFGGGTKVEIK and report it.
9.32
